B1: MLL5 (parent)
chain: HDDGYMICCDKCSVWQHIDCMGID

# Variants of: B1
# test: protein stability index of a GFP-peptide fusion (GPS, HEK-293T) (PSI 1-6); higher = more stable;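 further: lentivirally expressed fusions sorted by FACS into six bins by GFP to DsRed ratio, PSI derived from sequencing read proportions per bin multiplied by bin number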
# measurement conditions: c terminus: a fixed tail appended
Examples of variants with documented protein stability index follow.
value kind: protein stability index

>  <variant key>
I18W

>  <value kind>
protein stability index

>  <readout number>
2.38

$$$$
>  <variant key>
V14M

>  <value kind>
protein stability index

>  <readout number>
2.06

$$$$
>  <variant key>
S13A

>  <value kind>
protein stability index

>  <readout number>
1.73

$$$$
>  <variant key>
C8T

>  <value kind>
protein stability index

>  <readout number>
2.66

$$$$
>  <variant key>
Q16I

>  <value kind>
protein stability index

>  <readout number>
1.77

$$$$
>  <variant key>
Q16W

>  <value kind>
protein stability index

>  <readout number>
1.61

$$$$
>  <variant key>
H17Q

>  <value kind>
protein stability index

>  <readout number>
2.48

$$$$
>  <variant key>
Q16F

>  <value kind>
protein stability index

>  <readout number>
2.02

$$$$
>  <variant key>
G4Y

>  <value kind>
protein stability index

>  <readout number>
2.48

$$$$
>  <variant key>
G22T

>  <value kind>
protein stability index

>  <readout number>
2.19

$$$$
>  <variant key>
S13N

>  <value kind>
protein stability index

>  <readout number>
2.56

$$$$
>  <variant key>
H1Q

>  <value kind>
protein stability index

>  <readout number>
2.24

$$$$
>  <variant key>
C12R

>  <value kind>
protein stability index

>  <readout number>
2.28

$$$$
>  <variant key>
D2F

>  <value kind>
protein stability index

>  <readout number>
2.23

$$$$
>  <variant key>
C9I

>  <value kind>
protein stability index

>  <readout number>
2.1

$$$$
>  <variant key>
H17D

>  <value kind>
protein stability index

>  <readout number>
2.5

$$$$
>  <variant key>
D19V

>  <value kind>
protein stability index

>  <readout number>
3.42

$$$$
>  <variant key>
M6L

>  <value kind>
protein stability index

>  <readout number>
2.59

$$$$
>  <variant key>
D19G

>  <value kind>
protein stability index

>  <readout number>
2.84

$$$$
>  <variant key>
M21W

>  <value kind>
protein stability index

>  <readout number>
2.03

$$$$
>  <variant key>
V14S

>  <value kind>
protein stability index

>  <readout number>
2.77

$$$$
>  <variant key>
M21N

>  <value kind>
protein stability index

>  <readout number>
2.73

$$$$
